Attribution: ChEMBL document CHEMBL1126041

target: Leukotriene B4 receptor 1 (Homo sapiens) (UniProt Q15722); assay: Inhibition of binding of [3H]LTB4 to the leukotriene B4 receptor of human peripheral neutrophils (PMN) at a concentration of 10 uM.
Sequence (Q15722 whole entry): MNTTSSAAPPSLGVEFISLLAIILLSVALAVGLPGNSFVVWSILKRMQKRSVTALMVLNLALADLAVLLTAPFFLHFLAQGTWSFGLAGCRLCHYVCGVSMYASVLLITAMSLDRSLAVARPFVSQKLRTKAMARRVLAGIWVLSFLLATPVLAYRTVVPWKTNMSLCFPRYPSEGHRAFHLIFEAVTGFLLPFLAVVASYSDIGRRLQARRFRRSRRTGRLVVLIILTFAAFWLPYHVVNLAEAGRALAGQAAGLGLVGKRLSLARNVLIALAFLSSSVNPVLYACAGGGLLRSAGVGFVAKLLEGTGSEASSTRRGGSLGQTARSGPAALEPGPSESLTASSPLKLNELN
experimental_readout: inhibition (%)

CCC1(c2ccc(N)cc2)CCC(=O)NC1=O (configuration not stated): 82
CC(=O)c1cc(C=O)c(OCCCCC#N)cc1O: 6
C=CCc1cc(C(C)=O)c(O)cc1OCCCCCC(=O)NO: 85
C=CCCCCOc1cc(O)c(C(C)=O)cc1CC=C: 73
CCc1cc(C(C)=O)c(O)cc1OCCCCN(C)C: 4
CCCc1cc(C(C)=O)ccc1OCCCCC#N: 44
CCc1cc(C(C)=O)c(O)cc1OCCCCCCCC(C)(C)C#N: 66

###

biological target: Leukotriene B4 receptor (Homo sapiens) (UniProt Q9NPC1+Q15722); test: Inhibition of [3H]LTB4 binding to leukotriene B4 receptor of human peripheral neutrophils (PMN) at a concentration of 0.1 uM.; format: protein assay
Sequence (Q9NPC1 whole entry, looked up, one chain of several): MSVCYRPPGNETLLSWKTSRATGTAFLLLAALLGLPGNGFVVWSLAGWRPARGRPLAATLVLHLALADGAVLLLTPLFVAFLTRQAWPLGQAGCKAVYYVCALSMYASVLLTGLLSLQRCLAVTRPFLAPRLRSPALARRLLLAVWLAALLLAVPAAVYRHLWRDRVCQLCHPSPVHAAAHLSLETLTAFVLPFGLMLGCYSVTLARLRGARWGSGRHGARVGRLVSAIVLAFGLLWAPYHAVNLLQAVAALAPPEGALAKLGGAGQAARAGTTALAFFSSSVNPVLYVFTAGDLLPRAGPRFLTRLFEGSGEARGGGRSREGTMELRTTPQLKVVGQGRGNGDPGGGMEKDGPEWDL
experimental_readout: inhibition (%)

CCc1cc(C(C)=O)c(O)cc1OCc1cccc(C#N)c1: 18
CCc1cc(C(C)=O)c(O)cc1OCCCCCCCC(C)(C)c1nnn[nH]1: 49
CCc1cc(C(C)=O)c(O)cc1OCCCCCC(C)(C)C#N: 17
CCc1cc(C(C)=O)c(O)cc1OCCCCCC(C)(C)c1nnn(C)n1: 16
C=CCc1cc(C(C)=O)c(O)cc1OCc1cccc(C#N)c1: 25
CCc1cc(C(C)=O)c(O)cc1OCCCC(C)(C)C(=O)O: 12
CCc1cc(C(C)=O)c(O)cc1OCCCC(C)(C)C#N: 13
CCc1cc(C(C)=O)c(O)cc1OCCCCCC(C)(C)c1nn[nH]n1: 56
CCc1cc(C(C)=O)c(O)cc1OCCCC(C)(C)c1nnn[nH]1: 28
CCc1cc(C(C)=O)c(O)cc1OCc1ccc(C#N)cc1: 0
CCc1cc(C(C)=O)c(O)cc1OCCCCCCCC(C)(C)C#N: 6

###

molecular target: Leukotriene B4 receptor 1 (Homo sapiens) (UniProt Q15722); experiment: Inhibition of [3H]LTB4 binding to leukotriene B4 receptor from human peripheral neutrophils (PMN), at a concentration of 1 uM
Quick rule for you: inhibition at 40% or higher means label 1, lower means label 0.

CCc1cc(C(C)=O)c(O)cc1OCCCC(C)(C)c1nnn[nH]1: label 1
CCCc1cc(C(C)=O)ccc1OCCCCC#N: label 0
C=CCc1cc(C(C)=O)c(O)cc1OCCCCCC(N)=O: label 0
CCc1cc(C(C)=O)c(O)cc1OCCCCCCC(=O)N(C)C: label 1
CCCc1cc(C(C)=O)c(O)cc1OCCCCC(=O)O: label 0
CCc1cc(C(C)=O)c(O)cc1OCCCCCCC(=O)O: label 0
C=CCc1cc(C(C)=O)c(O)cc1OCCCCCC(C)=O: label 1
C=CCc1cc(C(=O)CCCCCCCCC)c(O)cc1OCCCCC#N: label 0
C=CCc1cc(C(C)=O)c(O)cc1OCCCCCC(=O)NO: label 0
CCc1cc(C(C)=O)c(O)cc1OCCCCCCC(C)(C)c1nnn[nH]1: label 1
CC(=O)c1cc(C)c(OCCCCC#N)cc1O: label 0
CCCCCCc1cc(C(C)=O)c(O)cc1OCCCCC#N: label 0
